experiment: Rat IV/PO pharmacokinetic study; type: in vivo, Han Wistar rats; details: male, Han Wistar, prodrug Example 4 in blood, intravenous infusion, 1 mg/kg, mean ± SD, N=3

# COMPOUND_SMILES, AUC(0-inf) / ng·h/mL
data = [
    ("Cc1c(N2CN(c3ccc(=O)n(COP(=O)(O)O)c3C)C(=O)c3cc(F)c(Cl)cc32)ccc(F)c1F", 197),
]

----------
target: human Nav1.8 (Homo sapiens, UniProt Q9Y5Y9); assay: Nav1.8 inhibitory activity, QPatch 48 HTX electrophysiology in HEK293-Nav1.8 cells; format: cell-based; parameters: expressed in transfected cells; host or cells: HEK293; settings: half inactivation state voltage protocol (V1/2), HEK293 cells expressing human Nav1.8, read-out: [Nav1.8] pIC50 (converted)
Sequence (Q9Y5Y9 whole entry): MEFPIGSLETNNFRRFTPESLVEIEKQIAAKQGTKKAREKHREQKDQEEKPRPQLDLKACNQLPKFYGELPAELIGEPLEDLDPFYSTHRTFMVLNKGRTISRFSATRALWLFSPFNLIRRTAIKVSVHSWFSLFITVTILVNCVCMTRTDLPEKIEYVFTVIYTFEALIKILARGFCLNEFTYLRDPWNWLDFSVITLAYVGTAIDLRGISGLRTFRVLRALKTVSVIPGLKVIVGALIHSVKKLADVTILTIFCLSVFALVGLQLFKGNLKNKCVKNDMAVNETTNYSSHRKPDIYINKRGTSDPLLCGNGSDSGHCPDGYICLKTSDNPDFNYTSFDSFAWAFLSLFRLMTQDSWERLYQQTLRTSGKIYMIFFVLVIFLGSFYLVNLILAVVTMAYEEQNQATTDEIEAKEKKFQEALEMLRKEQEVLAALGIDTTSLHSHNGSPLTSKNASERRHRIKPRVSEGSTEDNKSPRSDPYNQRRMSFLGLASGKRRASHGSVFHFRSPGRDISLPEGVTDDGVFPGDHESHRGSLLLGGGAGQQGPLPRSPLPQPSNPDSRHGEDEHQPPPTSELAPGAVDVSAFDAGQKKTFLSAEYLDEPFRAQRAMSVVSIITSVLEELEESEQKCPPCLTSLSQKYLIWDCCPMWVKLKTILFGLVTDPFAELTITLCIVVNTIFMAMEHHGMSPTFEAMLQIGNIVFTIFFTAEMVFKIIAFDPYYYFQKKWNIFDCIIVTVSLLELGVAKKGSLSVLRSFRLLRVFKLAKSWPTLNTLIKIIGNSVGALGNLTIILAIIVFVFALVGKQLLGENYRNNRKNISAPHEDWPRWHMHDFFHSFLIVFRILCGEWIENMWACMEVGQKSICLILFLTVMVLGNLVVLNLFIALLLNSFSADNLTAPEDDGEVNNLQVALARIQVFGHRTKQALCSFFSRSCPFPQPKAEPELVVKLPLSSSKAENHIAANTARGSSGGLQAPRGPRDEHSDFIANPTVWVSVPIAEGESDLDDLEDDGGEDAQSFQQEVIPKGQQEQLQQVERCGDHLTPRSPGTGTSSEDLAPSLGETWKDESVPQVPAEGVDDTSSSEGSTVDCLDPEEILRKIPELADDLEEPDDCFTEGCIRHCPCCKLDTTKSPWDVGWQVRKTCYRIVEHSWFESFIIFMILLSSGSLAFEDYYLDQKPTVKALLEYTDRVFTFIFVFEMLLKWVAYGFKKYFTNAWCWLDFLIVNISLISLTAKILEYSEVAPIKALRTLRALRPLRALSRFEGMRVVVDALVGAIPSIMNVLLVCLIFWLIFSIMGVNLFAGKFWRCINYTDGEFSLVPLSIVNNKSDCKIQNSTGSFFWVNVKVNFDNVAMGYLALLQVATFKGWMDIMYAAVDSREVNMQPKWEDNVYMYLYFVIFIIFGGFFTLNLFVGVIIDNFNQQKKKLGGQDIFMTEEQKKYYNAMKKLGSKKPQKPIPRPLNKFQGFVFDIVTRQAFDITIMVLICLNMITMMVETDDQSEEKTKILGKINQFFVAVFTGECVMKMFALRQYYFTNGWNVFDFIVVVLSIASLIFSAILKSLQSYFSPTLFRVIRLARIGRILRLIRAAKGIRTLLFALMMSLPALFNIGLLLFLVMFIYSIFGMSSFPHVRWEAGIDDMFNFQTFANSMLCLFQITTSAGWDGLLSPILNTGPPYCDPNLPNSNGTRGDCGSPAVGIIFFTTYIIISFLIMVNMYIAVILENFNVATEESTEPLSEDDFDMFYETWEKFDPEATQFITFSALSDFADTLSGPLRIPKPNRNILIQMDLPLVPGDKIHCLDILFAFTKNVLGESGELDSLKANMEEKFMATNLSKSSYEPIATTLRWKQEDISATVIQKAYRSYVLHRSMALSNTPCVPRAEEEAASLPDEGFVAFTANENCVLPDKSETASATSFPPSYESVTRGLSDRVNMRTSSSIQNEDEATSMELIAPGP
READOUT: IC50 (nM)

# COMPOUND_SMILES, OBSERVED
records = [
    ("Cc1cc(OC(F)(F)F)ccc1N1CN(c2cc(C)c(=O)[nH]c2C)C(=O)c2cc(C(F)(F)F)cnc21", 20),
    ("Cc1[nH]c(=O)ccc1N1CN(c2ccc(F)c(F)c2C)c2cc(Cl)c(F)cc2C1=O", 5.01),
    ("Cc1c(N2CN(c3ccc(=O)n(COP(=O)(O)O)c3C)C(=O)c3cc(C(F)(F)F)ncc32)ccc(F)c1F", 1260),
    ("Cc1[nH]c(=O)ccc1N1CN(c2ccc(F)c(F)c2C)c2cnc(C(F)(F)F)cc2C1=O", 100),
    ("Cc1cc(OC(F)(F)F)ccc1N1CN(c2cc(C)c(=O)n(COP(=O)(O)O)c2C)C(=O)c2cc(C(F)(F)F)cnc21", 501),
    ("Cc1cc(F)ccc1N1CN(c2ccc(=O)n(COP(=O)(O)O)c2C)C(=O)c2cc(F)c(Cl)cc21", 63.1),
]

----------
assay: Rat IV/PO pharmacokinetic study; format: in vivo, Han Wistar rats; details: male, Han Wistar, prodrug Example 4 in blood, intravenous infusion, 1 mg/kg, mean ± SD, N=3
READOUT: AUC(0-t) (ng·h/mL)

# COMPOUND_SMILES, OBSERVED
records = [
    ("Cc1c(N2CN(c3ccc(=O)n(COP(=O)(O)O)c3C)C(=O)c3cc(F)c(Cl)cc32)ccc(F)c1F", 197),
]

----------
assay: Rat IV/PO pharmacokinetic study; type: in vivo, Han Wistar rats; details: male, Han Wistar, prodrug Example 4 in blood, 60-minute intravenous infusion of Example 4, 1 mg/kg (Table 5A: 1.2 ± 0.1 mg/kg), mean ± SD, N=3

# COMPOUND_SMILES, Cmax [ng/mL]
records = [
    ("Cc1c(N2CN(c3ccc(=O)n(COP(=O)(O)O)c3C)C(=O)c3cc(F)c(Cl)cc32)ccc(F)c1F", 238),
]

----------
assay: CAD kinetic solubility; format: physicochemical; conditions: phosphate buffered saline (PBS), aqueous buffer, PBS pH 7.4, 1 hour equilibration at room temperature, from DMSO stock, HPLC-CAD

# COMPOUND_SMILES, RELATION_SYMBOL, solubility at 1 h (µg/mL)
measured = [
    ("Cc1cc(F)ccc1N1CN(c2ccc(=O)[nH]c2C)C(=O)c2cc(F)c(Cl)cc21", "=", 55),
    ("Cc1[nH]c(=O)ccc1N1CN(c2ccc(F)c(F)c2C)c2cnc(C(F)(F)F)cc2C1=O", "≥", 210),
    ("Cc1c(N2CN(c3ccc(=O)n(COP(=O)(O)O)c3C)C(=O)c3cc(F)c(Cl)cc32)ccc(F)c1F", "=", 157),
]
